Listed next: entries and their corresponding Right ear thickness.
test system: mice (Sencar strain); assay: Ear thickness after TPA plus pyrethroid application, Example 2; format: in vivo; details: day 0 (before application); Sencar female mice, n=3
Express your answer in ×0.01 mm, writing the number without its unit.

# Right ear thickness of CC1(C)C(C=C(Cl)Cl)C1C(=O)OCc1cccc(Oc2ccccc2)c1 (stereo not shown) [Permethrin, permethrin] = 23.3

# Right ear thickness of CC(C)C(C(=O)OC(C#N)c1cccc(Oc2ccccc2)c1)c1ccc(Cl)cc1 (stereo not shown) [Fenvalerate, fenvalerate] = 24.0

# Right ear thickness of CC1(C)C(C=C(Cl)Cl)C1C(=O)OC(C#N)c1cccc(Oc2ccccc2)c1 (stereo not shown) [Cypermethrin, cypermethrin] = 24.0

# Right ear thickness of CC1(C)[C@H](C(=O)O[C@H](C#N)c2cccc(Oc3ccccc3)c2)[C@@H]1C=C(Br)Br [Deltamethrin, deltamethrin] = 26.0
